# target.entity: T1, di huNKG2D ECD Fc avi (human, biotinylated at the avi-tag)
# T1 construct: Dimeric fusion of human NKG2D ECD to the C-terminus of an avi-tagged human IgG1 Fc
# assay.remarks: SPR Biacore; IgG captured by anti-Fab, antigen analyte
# Method: Around 1500 resonance units (RU) of the capture antibody (10 μg/ml human Fab Capture Kit, GE Healthcare Life Sciences, #28958325) were coupled onto a CM5 chip (GE Healthcare, #BR-1005-30) using a BIACORE® B4000 instrument (GE Healthcare) at pH 5.0 by using an amine coupling kit supplied by GE Healthcare. […] The dissociation phase was monitored for up to 450 s and triggered by switching from the sample solution to running buffer. […]
Measured pKd of individual entries
Formally, pKd is defined as -log10 of the concentration c, with c in mol/L.

Completed entries (count: 4):
{"binder": "anti-NKG2D antibody clone 001 (antibody, V domains shown, From transgenic rabbits) VH: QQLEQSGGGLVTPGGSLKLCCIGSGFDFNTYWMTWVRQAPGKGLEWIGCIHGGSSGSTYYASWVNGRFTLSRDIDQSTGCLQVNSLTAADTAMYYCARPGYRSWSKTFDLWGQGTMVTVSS VL: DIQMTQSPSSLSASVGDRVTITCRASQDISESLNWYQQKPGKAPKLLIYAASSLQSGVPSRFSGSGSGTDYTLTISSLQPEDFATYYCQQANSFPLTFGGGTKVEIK", "result": 8.07}
{"binder": "anti-NKG2D antibody clone 230 (antibody, V domains shown, From transgenic rabbits) VH: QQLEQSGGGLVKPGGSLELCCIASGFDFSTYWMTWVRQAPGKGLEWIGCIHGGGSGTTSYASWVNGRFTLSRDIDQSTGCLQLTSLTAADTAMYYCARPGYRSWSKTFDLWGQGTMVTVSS VL: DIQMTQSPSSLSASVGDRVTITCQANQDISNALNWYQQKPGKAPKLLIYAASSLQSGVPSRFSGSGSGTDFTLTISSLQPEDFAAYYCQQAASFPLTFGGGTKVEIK", "result": 8.44}
{"binder": "anti-NKG2D antibody clone 320 (antibody, V domains shown, From transgenic rabbits; also called 320 IgG) VH: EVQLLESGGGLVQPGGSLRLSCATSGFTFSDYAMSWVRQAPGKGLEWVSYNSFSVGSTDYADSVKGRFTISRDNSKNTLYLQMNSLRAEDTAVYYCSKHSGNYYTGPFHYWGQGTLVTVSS VL: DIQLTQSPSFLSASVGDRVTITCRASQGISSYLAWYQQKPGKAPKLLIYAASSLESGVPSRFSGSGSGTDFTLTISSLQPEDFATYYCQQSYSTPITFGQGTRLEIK", "result": 6.96}
{"binder": "anti-NKG2D antibody clone 296 (antibody, V domains shown, From transgenic rabbits) VH: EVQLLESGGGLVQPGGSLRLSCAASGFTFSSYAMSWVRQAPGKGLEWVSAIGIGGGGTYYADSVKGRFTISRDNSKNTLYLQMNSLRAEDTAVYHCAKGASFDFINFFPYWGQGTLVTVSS VL: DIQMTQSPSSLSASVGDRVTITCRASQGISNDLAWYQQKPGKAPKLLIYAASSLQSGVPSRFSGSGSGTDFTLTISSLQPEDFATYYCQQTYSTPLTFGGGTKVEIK", "result": 8.42}

# binder anti-NKG2D antibody clone 395 (antibody, V domains shown, From transgenic rabbits; rabbit VH, human VL) VH: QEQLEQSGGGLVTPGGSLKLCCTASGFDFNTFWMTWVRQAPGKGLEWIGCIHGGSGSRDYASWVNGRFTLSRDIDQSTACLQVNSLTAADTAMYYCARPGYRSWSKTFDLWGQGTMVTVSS VL: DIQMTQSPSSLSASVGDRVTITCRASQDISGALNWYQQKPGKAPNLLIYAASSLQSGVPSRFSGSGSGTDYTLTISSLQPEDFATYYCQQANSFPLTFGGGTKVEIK ; its pKd = 9.26

# binder anti-NKG2D antibody clone 018 (antibody, V domains shown, From transgenic rabbits) VH: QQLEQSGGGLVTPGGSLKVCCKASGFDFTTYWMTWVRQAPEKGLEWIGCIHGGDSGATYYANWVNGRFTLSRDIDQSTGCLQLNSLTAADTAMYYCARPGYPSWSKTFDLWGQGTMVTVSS VL: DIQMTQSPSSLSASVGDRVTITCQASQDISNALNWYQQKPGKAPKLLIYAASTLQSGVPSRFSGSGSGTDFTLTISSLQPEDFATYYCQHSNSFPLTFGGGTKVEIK ; its pKd = 7.54

# binder anti-NKG2D antibody clone 013 (antibody, V domains shown, From transgenic rabbits) VH: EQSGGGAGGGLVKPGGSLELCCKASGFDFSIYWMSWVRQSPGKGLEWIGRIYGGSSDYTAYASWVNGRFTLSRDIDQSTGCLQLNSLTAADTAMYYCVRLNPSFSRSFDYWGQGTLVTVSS VL: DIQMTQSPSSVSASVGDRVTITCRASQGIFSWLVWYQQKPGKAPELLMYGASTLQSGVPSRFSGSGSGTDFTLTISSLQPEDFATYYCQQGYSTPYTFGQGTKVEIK ; its pKd = 7.80

Reference source for all entries: patent US20240067734A1
